Measurement protocol: LAP4-GFP expression modulators in yeast, confirmation, cell-based, cherry picks, flow cytometry, mother/daughter gates (AID 2271)
Condition: S. cerevisiae LAP4-GFP strain, 3 h, at 10 µM, 100 means same as DMSO control
The source made the active and inactive calls.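 Rule for the calls: active = GFP response above 150% of the DMSO control; inconclusive = fewer than 70 events counted in any yeast strain; inactive = the rest.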
Log the outcome using a class from active, inactive

// below: answered compounds
CC1CCCCN1S(=O)(=O)c1ccc(C(=O)Nc2nnc(-c3ccccc3Cl)o2)cc1 (centres undefined)	inactive
CCOc1ccc2ccccc2c1C(=O)N1CCN(c2ccccc2)CC1	inactive
CCCCCCCCC/C(=N\O)c1ccccn1	active

Field: next compound
Recorded test call requested for CCc1ccc(OCC(=O)NNC(=S)NC(=O)C2CC2)c(Br)c1 active
